Experimental system: T1, recombinant human CD73 ectodomain (aa 27-549) with C-terminal His6x tag (human, UniProt P21589 27-549)
T1 construct: also called soluble recombinant human CD73; soluble human CD73
T1 sequence: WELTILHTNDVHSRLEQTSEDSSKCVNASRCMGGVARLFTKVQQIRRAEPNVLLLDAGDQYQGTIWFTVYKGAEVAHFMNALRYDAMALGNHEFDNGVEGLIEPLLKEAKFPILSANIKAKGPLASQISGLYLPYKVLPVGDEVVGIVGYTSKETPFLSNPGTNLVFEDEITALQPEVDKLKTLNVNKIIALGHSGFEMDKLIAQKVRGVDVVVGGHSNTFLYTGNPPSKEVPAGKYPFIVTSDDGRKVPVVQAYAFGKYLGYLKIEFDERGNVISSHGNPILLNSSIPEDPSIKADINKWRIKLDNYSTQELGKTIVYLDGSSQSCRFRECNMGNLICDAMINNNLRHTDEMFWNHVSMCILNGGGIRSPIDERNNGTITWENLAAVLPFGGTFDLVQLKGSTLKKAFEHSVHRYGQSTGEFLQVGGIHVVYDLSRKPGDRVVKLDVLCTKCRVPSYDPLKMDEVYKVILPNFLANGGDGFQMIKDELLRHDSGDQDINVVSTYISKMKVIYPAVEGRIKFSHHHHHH
Assay info: BLI (Octet), immobilized Nb-rbIgG hcAb, soluble human CD73 as analyte
Reported log10 koff values follow for various binders
Attribute measured: log10 koff (log10 of the value in s⁻¹)

- Binder: "SB141 rabbit IgG hcAb (Fc fusion, not shown: hinge and Fc-domains of rabbit IgG) heavy: QVQLVESGGGLVQPGGSLRLSCAASGFTFINYHMSWLRQAPGKGLEWVSEIHSRGDITSYTNSVKGRFTISRDNAKNTLYLQMNSLKFDDTAVYYCARSRDLFNEGEYDYWGRGTQVTVSS"
  log10 koff: -3.35
- Binder: "SB115 rabbit IgG hcAb (Fc fusion, not shown: hinge and Fc-domains of rabbit IgG) heavy: DVQLQASGGGLVQPGGSLRLSCVVSGFTLDYYTIGWFRQAPGKEREGVSCINSSGGVTNYADSVKGRFTISRDNAKNTVYLQMNSLKSEDTAVYYCAAQKYYYCSRKGEVYDSWGQGTQVTVSS"
  log10 koff: -3.46
- Binder: "SB125 rabbit IgG hcAb (Fc fusion, not shown: hinge and Fc-domains of rabbit IgG) heavy: QVQLQESGGGLVQPGGSLRLSCAVSGFALDYYTIGWFRQAPGKEREGVSCISSSGGSTNYADSVKGRLTISRDNAKNTVYLQMNSLKPEDTAVYYCAAQRYYYCSDKVEVYDYWGQGTQVTVSS"
  log10 koff: -3.24
- Binder: "SB121 rabbit IgG hcAb (Fc fusion, not shown: hinge and Fc-domains of rabbit IgG) heavy: QVQLQESGGGLVQAGGSLRLSCAASGSIGSIIAMGWYRQGPGKQRELVARMFTDDGSTNYDDSVKGRFTISRDSAGTTVYLQMNSLKPEDTAVYYCNAQRRWNAYWGPGTQVTVSS"
  log10 koff: -1.66
- Binder: "SB123 rabbit IgG hcAb (Fc fusion, not shown: hinge and Fc-domains of rabbit IgG) heavy: DVQLQESGGGLVQPGGSLTLSCAASGFTLDYLSIGWFRQVPGKEREGVSCINSSGGSTNYADSVKGRLTISRDNAKNTVYLQINSLKPEDTAVYYCAAHKYYYCSNKVAVFDYWGQGTQVTVSS"
  log10 koff: -4.37
- Binder: "SB116 rabbit IgG hcAb (Fc fusion, also called SB116-rbFc; dimeric SB116 Fc construct; not shown: hinge and Fc-domains of rabbit IgG) heavy: QVKLQESGGGRVQTGGSLRLSCAASGISFSITTMYWYRQAPGEQRQLVALITDRGNTYYVDSVKGRFTISRDDSKNTVYLQMNDLKPEDTAVYFCNSIPGNDWGQGTQVTVSS"
  log10 koff: -3.77
